target: trypsin (Bos taurus, UniProt P00760); construct: purchased Sigma; host or cells: bovine pancreas; assay: Trypsin-inhibitory activity; type: biochemical; settings: concentration 0.1 μM; bovine pancreas, pH 8.0
Sequence (P00760 24-246): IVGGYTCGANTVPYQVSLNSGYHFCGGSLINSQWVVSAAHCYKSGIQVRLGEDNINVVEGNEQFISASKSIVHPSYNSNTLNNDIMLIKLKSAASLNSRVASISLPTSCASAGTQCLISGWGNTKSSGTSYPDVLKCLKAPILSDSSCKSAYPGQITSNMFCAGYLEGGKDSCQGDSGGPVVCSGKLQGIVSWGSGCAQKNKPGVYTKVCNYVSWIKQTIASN
measurement name: inhibition at 0.1 µM (%)

molecule	measurement name	endpoint unit	assay value
O=C(CO)[C@@H]1CCCN1C(=O)[C@@H]1CCCN1C(=O)NCc1ccccc1 [Compound 2]	inhibition at 0.1 µM	%	0
O=C(CO)[C@@H]1CCCN1C(=O)[C@@H]1CCCN1C(=O)NCCc1ccccc1 [Compound 5]	inhibition at 0.1 µM	%	0
O=C(OCC(=O)[C@@H]1CCCN1C(=O)[C@@H]1CCCN1C(=O)NCc1ccccc1)c1ccccc1 [Compound 3]	inhibition at 0.1 µM	%	0

The reported measurements were obtained from patent US5536737A.
